Reported POC (percent of control) BxPC3 values for the following compounds.
System: BxPC3 (pancreatic cancer)
Test: ATP level assay (CellTiter-Glo), percent of control
Format: cell-based
Conditions: compound 100 uM + rotenone (approximately 1.25 μM), two hour incubation
attribute-measured: POC (percent of control) BxPC3

>>> experimental_result("O=S(=O)(NCc1cscn1)c1ccc(Cl)cc1")
"94.3% of control"
>>> experimental_result("CC(=O)n1cc(CNS(=O)(=O)c2ccc(Cl)cc2)c2ccccc21")
"71.1% of control"
>>> experimental_result("O=[N+]([O-])c1cccc(S(=O)(=O)NCc2c[nH]c3ccccc23)c1")
"78.2% of control"
>>> experimental_result("COc1ncccc1CNS(=O)(=O)c1ccccc1")
"55.3% of control"
>>> experimental_result("Cc1ccc(S(=O)(=O)NCc2cnccn2)cc1")
"72.7% of control"
>>> experimental_result("O=S(=O)(NCc1cncnc1)c1ccc(Cl)cc1")
"60.9% of control"
>>> experimental_result("O=S(=O)(NCc1c[nH]c2ccccc12)c1ccccc1")
"84.5% of control"
>>> experimental_result("Cc1ccc(S(=O)(=O)NCc2nn(C)c3ccccc23)cc1")
"93.5% of control"
>>> experimental_result("Cc1cccc2[nH]cc(CNS(=O)(=O)c3ccccc3)c12")
"79.1% of control"

* * *

Reported activity at 100 µM values for the following compounds.
Test system: H293 (kidney cancer)
Assay: ATP level assay (CellTiter-Glo), percent of control
Type: cell-based
Conditions: 2 h; compound alone, 100 uM, two hour incubation, control DMSO; read-out: POC (percent of control) H293
Experimental: In the present method, the method of using the available assays has been modified to measure the short-term effect of compounds of interest on ATP levels in the cells. […] Following treatment of the control and test cells with the metabolic inhibitor, the method calls for addition of the compound to be screened for anti-cancer properties to the cells. […] Following completion of the selected time period, the ATP level within the cell is determined. […]
attribute-measured: activity at 100 µM (%)

>>> experimental_result("Cc1cccc2[nH]cc(CNS(=O)(=O)c3ccccc3)c12")
93.2
>>> experimental_result("O=[N+]([O-])c1cccc(S(=O)(=O)NCc2c[nH]c3ccccc23)c1")
99.7
>>> experimental_result("COc1ncccc1CNS(=O)(=O)c1ccccc1")
101
>>> experimental_result("O=S(=O)(NCc1c[nH]c2ccccc12)c1ccc(Cl)cc1")
43.8
>>> experimental_result("O=S(=O)(NCc1cscn1)c1ccc(Cl)cc1")
67.3
>>> experimental_result("COc1ccc(S(=O)(=O)NCc2c[nH]c3ccccc23)cc1")
92.1
>>> experimental_result("CC(=O)n1cc(CNS(=O)(=O)c2ccc(Cl)cc2)c2ccccc21")
88.6
>>> experimental_result("Cc1cccc2c(CNS(=O)(=O)c3ccc(Cl)cc3)c[nH]c12")
43.2
>>> experimental_result("Cc1ccc(S(=O)(=O)NCc2nccs2)cc1")
82.2
>>> experimental_result("Cc1ccc(S(=O)(=O)NCc2cnccn2)cc1")
80.1
>>> experimental_result("Cc1ccc(S(=O)(=O)NCc2nn(C)c3ccccc23)cc1")
112
>>> experimental_result("Cc1ccc(S(=O)(=O)NCc2coc(C)n2)cc1")
115
>>> experimental_result("O=S(=O)(NCc1c[nH]c2ccccc12)c1ccccc1")
74.3
>>> experimental_result("Cc1ccc(S(=O)(=O)NCc2cscn2)cc1")
80.4
>>> experimental_result("Cc1ccc(S(=O)(=O)NCc2ccc3ncccc3c2)cc1")
122
>>> experimental_result("Cc1ccc(S(=O)(=O)NCc2c[nH]c3ccccc23)cc1")
92.8
>>> experimental_result("COc1ncccc1CNS(=O)(=O)c1ccc(C)cc1")
94.4
>>> experimental_result("CS(=O)(=O)NCc1c[nH]c2ccccc12")
110
>>> experimental_result("Cn1cc(CNS(=O)(=O)c2ccc(Cl)cc2)cn1")
92.8
>>> experimental_result("O=S(=O)(NCc1cncnc1)c1ccccc1")
99.8
>>> experimental_result("Cn1cc(CNS(=O)(=O)c2ccc(Cl)cc2)c2ccccc21")
91.2
